Test system: T. cruzi (MHOM/BR/00/Y)
procedure_text: Trypanosoma cruzi in mouse peritoneal macrophages
Assay type: cell-based
condition: 10 μM
Measured % Inhibition, Trypanosoma cruzi values are reported for all entries that follow.
Please state the figure in %; there is no need to write the unit.

>>> df
                        structure_as_smiles  numeric_value
0  F[B-](F)(F)F.F[B-](F)(F)F.c1cc[n+]2c(c1)-c1cccc3[n+]1[Pt-2]2([n+]1ccsc1)[n+]1ccccc1-3            5.0
1  CN(N)c1cc(-c2ccccn2)nc(-c2ccccn2)c1.Cc1ccncc1.F[B-](F)(F)F.F[B-](F)(F)F.[Pt+2]           53.3
2  Cc1ccncc1.F[B-](F)(F)F.F[B-](F)(F)F.NNc1cc(-c2ccccn2)nc(-c2ccccn2)c1.[Pt+2]           65.8

Switching to the query record.
Prompt: Query (compound): CC#[N+][Pt-2]12[n+]3ccccc3-c3cccc([n+]31)-c1cccc[n+]12.F[B-](F)(F)F.F[B-](F)(F)F ; field requested: % Inhibition, Trypanosoma cruzi
Completion: 4.0

* * *

Test system: T. brucei (S427) bloodstream trypomastigotes
procedure_text: Trypanosoma brucei bloodstream trypomastigote culture
Format: cell-based
condition: 1 μM
reported_property: % Inhibition, Trypanosoma brucei (%)
Numeric answer only, unit % assumed.

Illustrative cases are given below, each with its answer.
structure_as_smiles	reported_property	units_of_measure	numeric_value
F[B-](F)(F)F.F[B-](F)(F)F.[NH3+][Pt-2]12[n+]3ccccc3-c3cccc([n+]31)-c1cccc[n+]12	% Inhibition, Trypanosoma brucei	%	100
Cc1ccncc1.Cc1ccncc1.F[B-](F)(F)F.F[B-](F)(F)F.F[B-](F)(F)F.F[B-](F)(F)F.O=C(CCCCC(=O)NNc1cc(-c2ccccn2)nc(-c2ccccn2)c1)NNc1cc(-c2ccccn2)nc(-c2ccccn2)c1.[Pt+2].[Pt+2]	% Inhibition, Trypanosoma brucei	%	0
CC(=O)c1cc[n+]([Pt-2]23[n+]4ccccc4-c4cccc([n+]42)-c2cccc[n+]23)cc1.F[B-](F)(F)F.F[B-](F)(F)F	% Inhibition, Trypanosoma brucei	%	100
F[B-](F)(F)F.F[B-](F)(F)F.Fc1ccc[n+]([Pt-2]23[n+]4ccccc4-c4cccc([n+]42)-c2cccc[n+]23)c1	% Inhibition, Trypanosoma brucei	%	100
F[B-](F)(F)F.F[B-](F)(F)F.OCc1cc[n+]([Pt-2]23[n+]4ccccc4-c4cccc([n+]42)-c2cccc[n+]23)cc1	% Inhibition, Trypanosoma brucei	%	100

Please examine the following record next.
Prompt: Using the record for Cc1ccncc1.F[B-](F)(F)F.F[B-](F)(F)F.[Pt+2].c1ccc(-c2cc(N3CC3)cc(-c3ccccn3)n2)nc1 , report its % Inhibition, Trypanosoma brucei.
Completion: 100

* * *

System: T. cruzi (MHOM/BR/00/Y)
procedure_text: Trypanosoma cruzi in mouse peritoneal macrophages
Format: cell-based
condition: 1 μM
# reported % Inhibition, Trypanosoma cruzi; entries follow
Provide only the numeric value, understood in %.

structure_as_smiles	assay_system	units_of_measure	% Inhibition, Trypanosoma cruzi
F[B-](F)(F)F.F[B-](F)(F)F.Fc1cccc[n+]1[Pt-2]12[n+]3ccccc3-c3cccc([n+]31)-c1cccc[n+]12	T. cruzi (MHOM/BR/00/Y)	%	3.0
CN(C)c1cc[n+]([Pt-2]23[n+]4ccccc4-c4cccc([n+]42)-c2cccc[n+]23)cc1.F[B-](F)(F)F.F[B-](F)(F)F	T. cruzi (MHOM/BR/00/Y)	%	30.3

Could you now consider this next compound?
Prompt: # % Inhibition, Trypanosoma cruzi lookup, item CN(NC(=O)CCCCC(=O)NN(C)c1cc(-c2ccccn2)nc(-c2ccccn2)c1)c1cc(-c2ccccn2)nc(-c2ccccn2)c1.Cc1ccncc1.Cc1ccncc1.F[B-](F)(F)F.F[B-](F)(F)F.F[B-](F)(F)F.F[B-](F)(F)F.[Pt+2].[Pt+2]
Completion: 0

* * *

Test system: T. brucei (S427) bloodstream trypomastigotes
procedure_text: Trypanosoma brucei bloodstream trypomastigote culture
Type: cell-based
condition: 1 μM
reported_property: % Inhibition, Trypanosoma brucei (%)
Respond with the bare value in %.

Record excerpt, results attached:
structure_as_smiles	assay_system	numeric_value
Cc1ccncc1.F[B-](F)(F)F.F[B-](F)(F)F.[Pt+2].c1ccc(-c2cccc(-c3ccccn3)n2)nc1	T. brucei (S427) bloodstream trypomastigotes	100
Cc1ccncc1.F[B-](F)(F)F.F[B-](F)(F)F.NNc1cc(-c2ccccn2)nc(-c2ccccn2)c1.[Pt+2]	T. brucei (S427) bloodstream trypomastigotes	100
Cc1ccncc1.F[B-](F)(F)F.F[B-](F)(F)F.OCCNc1cc(-c2ccccn2)nc(-c2ccccn2)c1.[Pt+2]	T. brucei (S427) bloodstream trypomastigotes	0
F[B-](F)(F)F.F[B-](F)(F)F.Fc1cccc[n+]1[Pt-2]12[n+]3ccccc3-c3cccc([n+]31)-c1cccc[n+]12	T. brucei (S427) bloodstream trypomastigotes	100
CN(NC(=O)CCCCC(=O)NN(C)c1cc(-c2ccccn2)nc(-c2ccccn2)c1)c1cc(-c2ccccn2)nc(-c2ccccn2)c1.Cc1ccncc1.Cc1ccncc1.F[B-](F)(F)F.F[B-](F)(F)F.F[B-](F)(F)F.F[B-](F)(F)F.[Pt+2].[Pt+2]	T. brucei (S427) bloodstream trypomastigotes	0
CC#[N+][Pt-2]12[n+]3ccccc3-c3cccc([n+]31)-c1cccc[n+]12.F[B-](F)(F)F.F[B-](F)(F)F	T. brucei (S427) bloodstream trypomastigotes	100
Brc1ccc(-c2cc(-c3ccccn3)nc(-c3ccccn3)c2)cc1.F[B-](F)(F)F.F[B-](F)(F)F.N.[Pt+2]	T. brucei (S427) bloodstream trypomastigotes	100
CN(C)c1cc[n+]([Pt-2]23[n+]4ccccc4-c4cccc([n+]42)-c2cccc[n+]23)cc1.F[B-](F)(F)F.F[B-](F)(F)F	T. brucei (S427) bloodstream trypomastigotes	100
CN(N)c1cc(-c2ccccn2)nc(-c2ccccn2)c1.Cc1ccncc1.F[B-](F)(F)F.F[B-](F)(F)F.[Pt+2]	T. brucei (S427) bloodstream trypomastigotes	44.4

Prompt: If you can, please state the reported % Inhibition, Trypanosoma brucei value of Brc1cc[n+]([Pt-2]23[n+]4ccccc4-c4cccc([n+]42)-c2cccc[n+]23)cc1.F[B-](F)(F)F.F[B-](F)(F)F .
Completion: 100

* * *

Measured % Inhibition, Trypanosoma cruzi, listed per entry.
System: T. cruzi (MHOM/BR/00/Y)
procedure_text: Trypanosoma cruzi in mouse peritoneal macrophages
Format: cell-based
condition: 10 μM
Form entry: enter the amount, then its unit.

Examples from the recorded data:
In [3]: df
Out[3]:
                        structure_as_smiles                reported_property  result
0  Cc1ccncc1.F[B-](F)(F)F.F[B-](F)(F)F.[Pt+2].c1ccc(-c2cc(N3CC3)cc(-c3ccccn3)n2)nc1  % Inhibition, Trypanosoma cruzi      0%
1  [Cl-].[Cl-].[Pt+2].c1ccc(-c2cccc(-c3ccccn3)n2)nc1  % Inhibition, Trypanosoma cruzi   99.0%
2  CN(C)c1cc[n+]([Pt-2]23[n+]4ccccc4-c4cccc([n+]42)-c2cccc[n+]23)cc1.F[B-](F)(F)F.F[B-](F)(F)F  % Inhibition, Trypanosoma cruzi    100%

Here's the next entry for you.
Prompt: Give the reported % Inhibition, Trypanosoma cruzi for Cc1ccncc1.F[B-](F)(F)F.F[B-](F)(F)F.OCCNc1cc(-c2ccccn2)nc(-c2ccccn2)c1.[Pt+2] (system: T. cruzi (MHOM/BR/00/Y)).
Completion: 0%

* * *

Tested on: CH1 human ovarian carcinoma cell line
procedure_text: 96 h growth inhibition, sulforhodamine B assay, CH1
Type: cell-based
condition: 96 h exposure, v = variable (mean)
reported_property: pIC50
Please treat pIC50 as minus the base-10 logarithm of the molar concentration.

In [3]: df
Out[3]:
                                   compound                           assay_system  numeric_value
0  F[B-](F)(F)F.F[B-](F)(F)F.[NH3+][Pt-2]12[n+]3ccccc3-c3cccc([n+]31)-c1cccc[n+]12 [Compound A12]  CH1 human ovarian carcinoma cell line           5.28
1  F[B-](F)(F)F.F[B-](F)(F)F.OCc1cc[n+]([Pt-2]23[n+]4ccccc4-c4cccc([n+]42)-c2cccc[n+]23)cc1 [Compound A9]  CH1 human ovarian carcinoma cell line           4.85
2  CN(C)c1cc[n+]([Pt-2]23[n+]4ccccc4-c4cccc([n+]42)-c2cccc[n+]23)cc1.F[B-](F)(F)F.F[B-](F)(F)F [Compound A3]  CH1 human ovarian carcinoma cell line           5.21
3  Cc1cc[n+]([Pt-2]23[n+]4ccccc4-c4cc(-c5ccc(Br)cc5)cc([n+]42)-c2cccc[n+]23)cc1.F[B-](F)(F)F.F[B-](F)(F)F [Q]  CH1 human ovarian carcinoma cell line           5.30
4  CC#[N+][Pt-2]12[n+]3ccccc3-c3cccc([n+]31)-c1cccc[n+]12.F[B-](F)(F)F.F[B-](F)(F)F [Compound A8]  CH1 human ovarian carcinoma cell line           4.74

Prompt: Requested field: pIC50. Item: Brc1cc[n+]([Pt-2]23[n+]4ccccc4-c4cccc([n+]42)-c2cccc[n+]23)cc1.F[B-](F)(F)F.F[B-](F)(F)F [Compound A1]
Completion: 5.68
